- assay summary: small-molecule binders of probe aLefty1, primary screen, biochemical, small-molecule microarray, 635/667 nm fluorescence (AID 1153);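 note: score merges spot fluorescence with signal-to-noise ratio from the scanned slide images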
- condition: higher = more signal
Parameter composite z-score: see the listing below.

Worked examples follow.
compound="CC(CCN1CCCc2nc(C)c(C)cc21)=NOC(C)CN1CCCCc2nc(C)c(C)cc21 (centres undefined)" readout_name="composite z-score" reported_value=0.123
compound=COCOc1ccc(Br)cc1C(=O)[C@@H]1O[C@H]1c1cccc(OC)c1 readout_name="composite z-score" reported_value=-0.0662
compound=COC(=O)CC=C[C@@H](C)[C@@H](C=NOC[C@H]1O[C@H](c2ccccc2)C=C[C@@H]1Oc1ccc(OC)cc1)NS(=O)(=O)c1ccc(C)cc1 readout_name="composite z-score" reported_value=-0.147

# input for lookup
The recorded composite z-score for "CO[C@@H]1COC(=O)[C@H](CCSC)NC(=O)CC=C[C@@H](C)COC(=O)[C@H](C)NC(=O)CC=C[C@H]1C" is -0.231
